The measured values listed here are drawn from paper PMC13235457.

system under test: Syk tandem SH2 (tSH2) domain
procedure details: intrinsic Trp fluorescence; 5 mM KCl, 145 mM NaCl
pKd: −log10 of the molar value. Non-standard residues stand in square brackets, D forms with d. No end group written: not given here. pY = N[C@@H](Cc1ccc(OP(=O)(O)O)cc1)C(=O)O
reported metric: pKd

binder	reported metric	numeric value
NQL[pY]NELNLGRREE[pY]DVLD [ITAM-ζ1-Y2P peptide (doubly phosphorylated first ITAM of the CD3-ζ chain)]	pKd	7.07
